Values were extracted from paper PMC5540273.

test system: ERK2; construct: gene MAPK1; settings: concentration: 1 μM, replicates: in singlicate; n = 1
MEASURED ENDPOINT: %Inh (%)
Entry rule: numbers only, all in %.

Use the examples below as a reference point.
>  <SMILES ENTRY>
CN1CCN(Cc2cccc(-c3ccc4c(Nc5ccc(Oc6ccccc6)cc5)ccnc4c3)c2)CC1

>  <TARGET SYSTEM>
ERK2

>  <RESULT UNITS>
%

>  <%Inh>
0

$$$$
>  <SMILES ENTRY>
Nc1ncnc2c1nc(-c1ccccc1)n2-c1ccccc1

>  <TARGET SYSTEM>
ERK2

>  <RESULT UNITS>
%

>  <%Inh>
10

$$$$
>  <SMILES ENTRY>
O=C(Nc1n[nH]c2nc(-c3ccc(O)cc3)ccc12)C1CC1

>  <TARGET SYSTEM>
ERK2;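 note: KINOMEscan kinase panel screen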

>  <RESULT UNITS>
%

>  <%Inh>
0

$$$$

Return %Inh (reported value) for this molecule: COc1cc(Nc2nccc(-c3c(-c4cccc(NC(=O)c5c(F)cccc5F)c4)nn4ncccc34)n2)cc(OC)c1OC 15

Return %Inh (reported value) for this molecule: Cc1cccc(NC(=O)Nc2ccc(Oc3ncnc4ccn(C)c34)cc2)c1 20
